Some substances, each annotated with its measured Mean Knock down level.
Test system: FAM86A (NM_201400.4)
Test Protocol: shRNA mean knockdown level of FAM86A (Table 1)
Type: cell-based
Setup Conditions: Homo sapiens FAM86A, pLKO.1 vector

Substance	Mean Knock down level
SEQ ID NO: 14: FAM86A shRNA (Homo sapiens, NM_201400.4), pLKO.1 vector, target sequence SEQ ID NO: 24 (DNA CCGGGCCAGCAGTTCTGGTTCTTAACTCGAGTTAAGAACCAGAACTGCTGGCTTTTTG)	0.77
SEQ ID NO: 12: FAM86A shRNA (Homo sapiens, NM_201400.4), pLKO.1 vector, target sequence SEQ ID NO: 22 (DNA CCGGCGAGGGAATGTCCTTCTCAATCTCGAGATTGAGAAGGACATTCCCTCGTTTTTG)	0.84
SEQ ID NO: 13: FAM86A shRNA (Homo sapiens, NM_201400.4), pLKO.1 vector, target sequence SEQ ID NO: 23 (DNA CCGGGATGTTGTCATTGCAGCAGATCTCGAGATCTGCTGCAATGACAACATCTTTTTG)	0.79
